B1: TIA1 (parent)
chain: TYECRCIGEEKEMWNFGEKYARF

Variants of: B1
Assay: protein stability index of a GFP-peptide fusion (GPS, HEK-293T) (PSI 1-6); higher = more stable;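 further: lentivirally expressed fusions sorted by FACS into six bins by GFP to DsRed ratio, PSI derived from sequencing read proportions per bin multiplied by bin number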
Details: c terminus: native
readout-name: protein stability index
# respond with the number and nothing more

(Q) Fill blank: measured protein stability index of the variant TYECRCIGEEKEMWNFCEKYARF [G17C] is ____.
(A) 1.75
